Listing of entries alongside the reported GI50.
# System: SN12C
# assayInfo: NCI tumour cell line growth inhibition, 48 h
Calls of active or inactive are those of the source. No stated cut-off is given here; in the data, active = GI50 up to about 1.1 µM and inactive = higher.

A selection of reference data follows.
CCOP(=O)(/C=C/n1cnc2c(=O)n(C(C)=O)c(N)nc21)OCC | > 100 µM (inactive)
O=C(O)/C=C/c1ccc(O)c(O)c1 | > 100 µM (inactive)
CC(=O)NS(=O)(=O)c1ccc(NC(=O)COC(=O)c2cccc3c(=O)c4ccccc4[nH]c23)cc1 | > 100 µM (inactive)
COC(=O)[C@@]12CC[C@]1(C(=O)OC)C1C(C)=CC(=O)O[C@@]12C (stereo not given in full) | > 100 µM (inactive)
O=S(=O)(O)c1ccc2cc(/N=N/c3c(O)ccc4ccccc34)ccc2c1 | > 100 µM (inactive)
COc1cc(/C=N/N=C(\N)NO)cc(Cl)c1O | 48.8 µM (inactive)
CCC1c2[nH]c3ccccc3c2C[C@H]2C(=O)NC(Cc3ccccc3)C(=O)N12 (stereo not given in full) | 28.5 µM (inactive)
COc1ccc(N2C(=O)/C(=C\c3cccc(Oc4ccccc4)c3)S(=O)(=O)C2c2ccccc2)cc1 (stereo not given) | 66.4 µM (inactive)
Cc1ccc(-c2nc3cc(F)c(N4CCN(C)CC4)cc3[nH]2)cc1 | 54.1 µM (inactive)

Would you kindly look at the next entry?
Requested read-out GI50, target or system SN12C, entry C=CCOC1OC(CS(=O)(=O)O)C(O)C(O)C1O (stereo not given)
> 100 µM (inactive)

----------
# System: XF498
# assayInfo: NCI tumour cell line growth inhibition, 48 h
Activity calls are given as the source filed them. Rule as the data show it: active = GI50 up to about 1.1 µM and inactive = higher.
Outcome field: choose from label 1 = active, label 0 = inactive

Example entries and their recorded answers appear below.
Nc1ccc(C(=O)/C=C/c2ccccc2O)cc1 | label 0
COc1cccc(-c2cc(O)c3cc4c(cc3n2)OCO4)c1 | label 1
CCOc1ccc(NC(=O)CC2SC(Nc3ccc(C)cc3)=NC2=O)cc1 (stereo not given) | label 0
O=C(CCc1cc(-c2ccccc2)[nH]c(=S)n1)Nc1ccccc1[N+](=O)[O-] | label 0
[O-][n+]1c(-c2ccccc2)c2nc3ccccc3nc2c2ccccc21 | label 0

How was CN(C)CCOc1cc2c(c3ccccc13)-c1ccccc1C2O (stereo not given) classified in this test?
label 0

How was `CCOC(=O)c1cn2c([nH]c3ccccc32)c(C#N)c1=O` classified in this test?
label 0

How was `COc1ccc2c(c1)[n+]([O-])c(-c1ccc(OC)c(OC)c1)c(N)[n+]2[O-]` classified in this test?
label 0

How was `Nc1ccc2nc(NCc3ccc(F)cc3)cnc2c1` classified in this test?
label 0

How was `Nc1nc2sc3ccccc3c(=O)n2n1` classified in this test?
label 0

----------
# Test system: Malme-3M
# assayInfo: NCI tumour cell line growth inhibition, 48 h
Active and inactive are the calls of the source. Cut-off read from the data, not from the text of the source: active = GI50 up to about 1.1 µM and inactive = higher.
Outcome field: choose from True for active, False for inactive

Example entries and their recorded answers appear below.
CC(C)CCCCCCCCCCCCC(=O)NCC(=O)NC1C(C)OC(Nc2[nH]cnc3ncnc2-3)C(O)C1O (stereo not drawn) | True
O=C(CSSCC(=O)OCCS(=O)(=O)Nc1ccc(Br)cc1)OCCS(=O)(=O)Nc1ccc(Br)cc1 | False
COC(=O)[C@@H](NC(=O)N(CCC#N)CCCN(C(=O)N[C@H](Cc1ccccc1)C(=O)OC)c1ccccc1)C(C)C | False
NC(=O)CN1CC(C2=C(O)CN(CC(N)=O)C2=O)=CC1=O | False
CC(C)(C)/C(=N\Nc1nc2ccccc2[nH]1)c1ccccn1 | False

How was `NCCCN(CCCN(C(=O)Nc1ccccc1)c1ccccc1)C(=O)Nc1ccccc1` classified in this test?
False

How was `N#Cc1cccc(NC(=O)c2ccc(C(=O)O)c(C(=O)c3ccc(C(=O)O)c(C(=O)Nc4cccc(C#N)c4)c3)c2)c1` classified in this test?
False

How was CN1c2ccc(O)c(O)c2-c2cc(O)cc3c2C1CCC3 (stereo not drawn) classified in this test?
False
